- Tested on: 361931-004-R-J1-PDC multicell spheroid viability;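 further: spheroids exposed to agents for seven days before readout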
- Experiment: Anticancer human tumor 361931-004-R-J1-PDC patient-derived colon adenocarcinoma cell line growth inhibition [PI3K]
- Condition Parameters: second compound 0.0316 µM; first compound 0.316 µM; active compounds read low
Value Type: viability, T/C

molecule="C[C@@H](NC(=O)c1ncnc(N)c1Cl)c1ncc(C(=O)Nc2cc(C(F)(F)F)c(Cl)cn2)s1 + CC(Nc1ccc2c(c1)OCCn1cc(N3C(=O)OCC3C(F)F)nc1-2)C(N)=O" experimental_target="361931-004-R-J1-PDC multicell spheroid viability" observed_measurement=92.2%
molecule="CCN1CCN(Cc2ccc(Nc3ncc(F)c(-c4cc(F)c5nc(C)n(C(C)C)c5c4)n3)nc2)CC1 + Cc1nc(NC(=O)N2CCCC2C(N)=O)sc1-c1ccnc(C(C)(C)C(F)(F)F)c1" experimental_target="361931-004-R-J1-PDC multicell spheroid viability" observed_measurement=79.7%
molecule="CC(C)NCC(C(=O)N1CCN(c2ncnc3c2C(C)CC3O)CC1)c1ccc(Cl)cc1 (stereo not given) + CC(Nc1ncnc2nc[nH]c12)c1cc2cccc(Cl)c2c(=O)n1-c1ccccc1" experimental_target="361931-004-R-J1-PDC multicell spheroid viability" observed_measurement=99%
molecule="CC1(C)CCC(CN2CCN(c3ccc(C(=O)NS(=O)(=O)c4ccc(NCC5CCOCC5)c([N+](=O)[O-])c4)c(Oc4cnc5[nH]ccc5c4)c3)CC2)=C(c2ccc(Cl)cc2)C1 + CC(Nc1ccc2c(c1)OCCn1cc(N3C(=O)OCC3C(F)F)nc1-2)C(N)=O" experimental_target="361931-004-R-J1-PDC multicell spheroid viability" observed_measurement=92.1%

// switching to the query molecule
Answer with viability, T/C of Cn1ncc(Cl)c1-c1cc(C(=O)NC(CN)Cc2cccc(F)c2)sc1Cl (stereo not given) + Cc1nc(NC(=O)N2CCCC2C(N)=O)sc1-c1ccnc(C(C)(C)C(F)(F)F)c1 measured for 361931-004-R-J1-PDC multicell spheroid viability.
83.4%
